- STUDY_TARGET: Voltage-gated potassium channel subunit beta-2 (Rattus norvegicus)
- METHOD_NOTES: inhibitors of rat Kvbeta2 reductase activity – biochemical, NADPH fluorescence, primary screen (AID 622);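 note: slope of raw intensity against log time taken from 70 to 1610 s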
- ASSAY_CONTEXT: recombinant KvBeta, 4-cyanobenzaldehyde reduction, at 10 µM, active compounds read high
MEASURE: fluorescence slope
// no unit string in output, number only

Answered examples (5):
COMPOUND: CCOC(=O)c1ccc(CNC(=O)C(Cc2c[nH]c3ccccc23)NC(C)=O)o1 (stereo unspecified)
fluorescence slope: -0.369
--
COMPOUND: CC1(C)CC(=O)C2=C(C1)Nc1nc(SCCN3CCOCC3)[nH]c(=O)c1C2c1cccs1 (stereo unspecified)
fluorescence slope: -0.57
--
COMPOUND: NC(=O)C1CCN(CC(=O)N2c3ccccc3CCc3ccccc32)CC1
fluorescence slope: -0.587
--
COMPOUND: CCN(CCO)C1CC(=O)N(c2ccccc2C)C1=O (stereo unspecified)
fluorescence slope: -0.321
--
COMPOUND: O=C(Cn1nc(Cc2cccnc2)c2ccccc2c1=O)Nc1ccc2c(c1)OCO2
fluorescence slope: -0.55

Look at this compound and give its reported fluorescence slope. O=C(Nc1cccnc1)Nc1ccc(F)c(Cl)c1
-0.517

The reported measurements were obtained from PubChem BioAssay.
